Just for reference, the supplement of paper PMC11246515 is where these values come from.

Experiment: total protein half-life in vivo (active degradation + dilution); higher = more stable protein
Conditions: wild type E. coli NCM3722; growth: C-lim chemostat; doubling time 12 h
Where total protein half-life in vivo equals or exceeds 7 h, the correct label is label 1; where it does not, the label is label 0.

# example entries with known answers
| query_sequence | group |
| --- | --- |
| MRIFVYGSLRHKQGNSHWMTNAQLLGDFSIDNYQLYSLGHYPGAVPGNGTVHGEVYRIDNATLAELDALRTRGGEYARQLIQTPYGSAWMYVYQRPVDGLKLIESGDWLDRDK [P0AE48] | label 1 |
| MKCKRLNEVIELLQPAWQKEPDLNLLQFLQKLAKESGFDGELADLTDDILIYHLKMRDSAKDAVIPGLQKDYEEDFKTALLRARGVIKE [P0ADP9] | label 1 |
| MKVLVTGATSGLGRNAVEFLCQKGISVRATGRNEAMGKLLEKMGAEFVPADLTELVSSQAKVMLAGIDTLWHCSSFTSPWGTQQAFDLANVRATRRLGEWAVAWGVRNFIHISSPSLYFDYHHHRDIKEDFRPHRFANEFARSKAASEEVINMLSQANPQTRFTILRPQSLFGPHDKVFIPRLAHMMHHYGSILLPHGGSALVDMTYYENAVHAMWLASQEACDKLPSGRVYNITNGEHRTLRSIVQKLIDELNIDCRIRSVPYPMLDMIARSMERLGRKSAKEPPLTHYGVSKLNFDFTLDITRAQEELGYQPVITLDEGIEKTAAWLRDHGKLPR | label 1 |
| MTTKRKPYVRPMTSTWWKKLPFYRFYMLREGTAVPAVWFSIELIFGLFALKNGPEAWAGFVDFLQNPVIVIINLITLAAALLHTKTWFELAPKAANIIVKDEKMGPEPIIKSLWAVTVVATIVILFVALYW [P0A8Q0] | label 1 |
| MSALNKKSFLTYLKEGGIYVVLLVLLAIIIFQDPTFLSLLNLSNILTQSSVRIIIALGVAGLIVTQGTDLSAGRQVGLAAVVAATLLQSMDNANKVFPEMATMPIALVILIVCAIGAVIGLINGLIIAYLNVTPFITTLGTMIIVYGINSLYYDFVGASPISGFDSGFSTFAQGFVALGSFRLSYITFYALIAVAFVWVLWNKTRFGKNIFAIGGNPEAAKVSGVNVGLNLLMIYALSGVFYAFGGMLEAGRIGSATNNLGFMYELDAIAACVVGGVSFSGGVGTVIGVVTGVIIFTVINYGLTYIGVNPYWQYIIKGAIIIFAVALDSLKYARKK | label 1 |

## Task Quick check, total protein half-life in vivo >= 7 h? "MTDNTYQPAKVWTWDKSAGGAFANINRPVSGPTHEKTLPVGKHPLQLYSLGTPNGQKVTIMLEELLALGVTGAEYDAWLIRIGDGDQFSSGFVEVNPNSKIPALRDHTHNPPIRVFESGSILLYLAEKFGYFLPQDLAKRTETMNWLFWLQGAAPFLGGGFGHFYHYAPVKIEYAINRFTMEAKRLLDVLDKQLAQHKFVAGDEYTIADMAIWPWFGNVVLGGVYDAAEFLDAGSYKHVQRWAKEVGERPAVKRGRIVNRTNGPLNEQLHERHDASDFETNTEDKRQG"
## Result label 1

## Task Quick check, total protein half-life in vivo >= 7 h? "MKTSRLPIAIQQAVMRRLREKLAQANLKLGRNYPEPKLSYTQRGTSAGTAWLESYEIRLNPVLLLENSEAFIEEVVPHELAHLLVWKHFGRVAPHGKEWKWMMENVLGVPARRTHQFELQSVRRNTFPYRCKCQEHQLTVRRHNRVVRGEAVYRCVHCGEQLVAK"
## Result label 0

## Task Quick check, total protein half-life in vivo >= 7 h? "MHQVVCATTNPAKIQAILQAFHEIFGEGSCHIASVAVESGVPEQPFGSEETRAGARNRVANARRLLPEADFWVAIEAGIDGDSTFSWVVIENASQRGEARSATLPLPAVILEKVREGEALGPVMSRYTGIDEIGRKEGAIGVFTAGKLTRASVYHQAVILALSPFHNAVY"
## Result label 1

###

For each of the sequences below, state its total protein half-life in vivo.
Assay: total protein half-life in vivo (active degradation + dilution); higher = more stable protein
Conditions: wild type E. coli NCM3722; growth: C-lim chemostat; doubling time 6 h
One number for each entry, in h.

Some entries whose results are on file:
| query_sequence | measured_parameter | readout_units | measurement |
| --- | --- | --- | --- |
| MKFKVIALAALMGISGMAAQANELPDGPHIVTSGTASVDAVPDIATLAIEVNVAAKDAATAKKQADERVAQYISFLELNQIAKKDISSANLRTQPDYDYQDGKSILKGYRAVRTVEVTLRQLDKLNSLLDGALKAGLNEIRSVSLGVAQPDAYKDKARKAAIDNAIHQAQELANGFHRKLGPVYSVRYHVSNYQPSPMVRMMKADAAPVSAQETYEQAAIQFDDQVDVVFQLEPVDQQPAKTPAAQ [P0ADS6] | total protein half-life in vivo | h | 5.88 |
| MSDNAQLTGLCDRFRGFYPVVIDVETAGFNAKTDALLEIAAITLKMDEQGWLMPDTTLHFHVEPFVGANLQPEALAFNGIDPNDPDRGAVSEYEALHEIFKVVRKGIKASGCNRAIMVAHNANFDHSFMMAAAERASLKRNPFHPFATFDTAALAGLALGQTVLSKACQTAGMDFDSTQAHSALYDTERTAVLFCEIVNRWKRLGGWPLSAAEEV | total protein half-life in vivo | h | 5.95 |
| MHYQPKQDLLNDRIILVTGASDGIGREAAMTYARYGATVILLGRNEEKLRQVASHINEETGRQPQWFILDLLTCTSENCQQLAQRIAVNYPRLDGVLHNAGLLGDVCPMSEQNPQVWQDVMQVNVNATFMLTQALLPLLLKSDAGSLVFTSSSVGRQGRANWGAYAASKFATEGMMQVLADEYQQRLRVNCINPGGTRTAMRASAFPTEDPQKLKTPADIMPLYLWLMGDDSRRKTGMTFDAQPGRKPGISQ | total protein half-life in vivo | h | 5.77 |
| MFSALRHRTAALALGVCFILPVHASSPKPGDFANTQARHIATFFPGRMTGTPAEMLSADYIRQQFQQMGYRSDIRTFNSRYIYTARDNRKSWHNVTGSTVIAAHEGKAPQQIIIMAHLDTYAPLSDADADANLGGLTLQGMDDNAAGLGVMLELAERLKNTPTEYGIRFVATSGEEEGKLGAENLLKRMSDTEKKNTLLVINLDNLIVGDKLYFNSGVKTPEAVRKLTRDRALAIARSHGIAATTNPGLNKNYPKGTGCCNDAEIFDKAGIAVLSVEATNWNLGNKDGYQQRAKTPAFPAGNSWHDVRLDNHQHIDKALPGRIERRCRDVMRIMLPLVKELAKAS | total protein half-life in vivo | h | 2.46 |
| MAMHLNENLDDNGEMHDINVTPFIDVMLVLLIIFMVAAPLATVDVKVNLPASTSTPQPRPEKPVYLSVKADNSMFIGNDPVTDETMITALNALTEGKKDTTIFFRADKTVDYETLMKVMDTLHQAGYLKIGLVGEETAKAK [P0ABV2] | total protein half-life in vivo | h | 0.847 |

## Task Complete the entry with total protein half-life in vivo for "MYKTIIMPVDVFEMELSDKAVRHAEFLAQDDGVIHLLHVLPGSASLSLHRFAADVRRFEEHLQHEAQERLQTMVSHFTIDPSRIKQHVRFGSVRDEVNELAEELGADVVVIGSRNPSISTHLLGSNASSVIRHANLPVLVVR"
## Result 6.27

###

Experiment: total protein half-life in vivo (active degradation + dilution); higher = more stable protein
Conditions: wild type E. coli NCM3722; growth: N-lim chemostat; doubling time 12 h
measured_parameter: total protein half-life in vivo (h)
Give bare numbers, in h.

Some entries whose results are on file:
| query_sequence | measured_parameter | readout_units | measurement |
| --- | --- | --- | --- |
| MNAEKSPVNHNVDHEEIAKFEAVASRWWDLEGEFKPLHRINPLRLGYIAERAGGLFGKKVLDVGCGGGILAESMAREGATVTGLDMGFEPLQVAKLHALESGIQVDYVQETVEEHAAKHAGQYDVVTCMEMLEHVPDPQSVVRACAQLVKPGGDVFFSTLNRNGKSWLMAVVGAEYILRMVPKGTHDVKKFIKPAELLGWVDQTSLKERHITGLHYNPITNTFKLGPGVDVNYMLHTQNK | total protein half-life in vivo | h | 5.66 |
| MKKWSRHLLAAGALALGMSAAHADDNNTLYFYNWTEYVPPGLLEQFTKETGIKVIYSTYESNETMYAKLKTYKDGAYDLVVPSTYYVDKMRKEGMIQKIDKSKLTNFSNLDPDMLNKPFDPNNDYSIPYIWGATAIGVNGDAVDPKSVTSWADLWKPEYKGSLLLTDDAREVFQMALRKLGYSGNTTDPKEIEAAYNELKKLMPNVAAFNSDNPANPYMEGEVNLGMIWNGSAFVARQAGTPIDVVWPKEGGIFWMDSLAIPANAKNKEGALKLINFLLRPDVAKQVAETIGYPTPNLAARKLLSPEVANDKTLYPDAETIKNGEWQNDVGAASSIYEEYYQKLKAGR [P0AFK9] | total protein half-life in vivo | h | 12 |
| MQSWYLLYCKRGQLQRAQEHLERQAVNCLAPMITLEKIVRGKRTAVSEPLFPNYLFVEFDPEVIHTTTINATRGVSHFVRFGASPAIVPSAVIHQLSVYKPKDIVDPATPYPGDKVIITEGAFEGFQAIFTEPDGEARSMLLLNLINKEIKHSVKNTEFRKL [P0AFW0] | total protein half-life in vivo | h | 5.43 |
| MIEFSHVSKLFGAQKAVNDLNLNFQEGSFSVLIGTSGSGKSTTLKMINRLVEHDSGEIRFAGEEIRSLPVLELRRRMGYAIQSIGLFPHWSVAQNIATVPQLQKWSRARIDDRIDELMALLGLESNLRERYPHQLSGGQQQRVGVARALAADPQVLLMDEPFGALDPVTRGALQQEMTRIHRLLGRTIVLVTHDIDEALRLAEHLVLMDHGEVVQQGNPLTMLTRPANDFVRQFFGRSELGVRLLSLRSVADYVRREERADGEALAEEMTLRDALSLFVARGCEVLPVVNMQGQPCGTLHFQDLLVEA | total protein half-life in vivo | h | 7.78 |
| MKRTKSIRHASFRKNWSARHLTPVALAVATVFMLAGCEKSDETVSLYQNADDCSAANPGKSAECTTAYNNALKEAERTAPKYATREDCVAEFGEGQCQQAPAQAGMAPENQAQAQQSSGSFWMPLMAGYMMGRLMGGGAGFAQQPLFSSKNPASPAYGKYTDATGKNYGAAQPGRTMTVPKTAMAPKPATTTTVTRGGFGESVAKQSTMQRSATGTSSRSMGG [P0ADT2] | total protein half-life in vivo | h | 7.11 |

Let us move to another entry and its total protein half-life in vivo.
## Task Complete the entry with total protein half-life in vivo for "MSDQQQPPVYKIALGIEYDGSKYYGWQRQNEVRSVQEKLEKALSQVANEPITVFCAGRTDAGVHGTGQVVHFETTALRKDAAWTLGVNANLPGDIAVRWVKTVPDDFHARFSATARRYRYIIYNHRLRPAVLSKGVTHFYEPLDAERMHRAAQCLLGENDFTSFRAVQCQSRTPWRNVMHINVTRHGPYVVVDIKANAFVHHMVRNIVGSLMEVGAHNQPESWIAELLAAKDRTLAAATAKAEGLYLVAVDYPDRYDLPKPPMGPLFLAD"
## Result 8.71
